src = ChEMBL document CHEMBL5365470

protocol text: Toxicity in […] PC12 cells at 50 uM
Type: cell-based, Rattus norvegicus
test context: pc12, 50 µM
observable: Activity

Answered cases to consult:
| given smiles | Activity |
| --- | --- |
| COc1ccc(C(=O)N2CCc3cc(OC)c(OC)cc3C2)cc1 | Toxic |
| COc1cc2c(cc1OC)CN(CCc1ccc(O)cc1)CC2 | Non-Toxic |
| COc1ccc(CN2CCc3cc(OC)c(OC)cc3C2)cc1 | Non-Toxic |
| COc1cc2c(cc1OC)CN(C(C)=O)CC2 | Toxic |
| COc1cc2c(cc1OC)CN(C(=O)c1ccccc1)CC2 | Toxic |

Task item: For the molecule `COc1cc2c(cc1OC)CN(C=O)CC2` , what Activity is on record?
Reply: Toxic

Task item: Further, for `COc1cc2c(cc1OC)CN(C(=O)C(C)(C)C)CC2` ?
Reply: Toxic

Task item: Further, for `CCN1CCc2cc(OC)c(OC)cc2C1` ?
Reply: Non-Toxic

Task item: Further, for `COc1cc2c(cc1OC)CN(C(=O)c1ccc(OC(C)=O)cc1)CC2` ?
Reply: Toxic

Task item: Further, for `COc1cc2c(cc1OC)CN(C(=O)c1ccc(C(F)(F)F)cc1)CC2` ?
Reply: Toxic

Task item: Further, for `COc1cc2c(cc1OC)CN(C(=O)c1ccccc1O)CC2` ?
Reply: Toxic

Task item: Further, for `COc1cc2c(cc1OC)CN(C)CC2` ?
Reply: Non-Toxic

Task item: Further, for `COc1ccc(CCCN2CCc3cc(OC)c(OC)cc3C2)cc1` ?
Reply: Non-Toxic

Task item: Further, for `COc1ccc(CCN2CCc3cc(OC)c(OC)cc3C2)cc1` ?
Reply: Non-Toxic

====

protocol text: Toxicity in […] PC12 cells at 50 uM
Format: cell-based, Rattus norvegicus
test context: pc12, 50 µM
observable: Activity

Answered cases to consult:
| given smiles | measured value |
| --- | --- |
| COc1cc2c(cc1OC)CN(Cc1ccccc1)CC2 | Non-Toxic |
| COc1cc2c(cc1OC)CN(C(=O)c1ccc(F)cc1)CC2 | Toxic |
| COc1cc2c(cc1OC)CN(CCc1ccccc1)CC2 | Non-Toxic |
| COc1cc2c(cc1OC)CN(C(=O)c1ccc(O)cc1)CC2 | Toxic |
| COc1cc2c(cc1OC)CN(Cc1ccc(F)cc1)CC2 | Non-Toxic |

Task item: For the compound `COc1cc2c(cc1OC)CN(C(=O)Cc1ccc(O)cc1)CC2` , what Activity is on record?
Reply: Toxic
